# measured target: recombinant human Cathepsin K (Homo sapiens (Human), UniProt P43235)
# Sequence (P43235 115-329): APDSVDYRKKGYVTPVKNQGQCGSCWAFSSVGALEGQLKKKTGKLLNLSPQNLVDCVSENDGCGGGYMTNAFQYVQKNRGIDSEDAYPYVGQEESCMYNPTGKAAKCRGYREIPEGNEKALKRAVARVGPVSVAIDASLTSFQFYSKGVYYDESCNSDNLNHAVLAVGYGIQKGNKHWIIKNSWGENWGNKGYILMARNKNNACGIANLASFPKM
# test name: Inhibition of human Cathepsin K
# protocol conditions: substrate Z-Gly-Pro-Arg-AMC
Record form. Attribute: pIC50. Fill in for each entry.
Give bare numbers, as −log10 of the molar value.

Previously resolved entries follow.
> print(dat)
                                   molecule  observed
1  CCOCc1cn(-c2ccc(C[C@@H](C#N)NC(=O)[C@H]3N[C@@H]4CC[C@H]3C4)c(F)c2)nn1 [Example 105]      5.28
2  Cn1c(=O)c2cc(C[C@@H](C#N)NC(=O)[C@H]3N[C@@H]4CC[C@H]3C4)c(F)cc2c2ccccc21 [Example 326]      5.96
3  Cc1ncc(-c2ccc(C[C@@H](C#N)NC(=O)[C@H]3N[C@@H]4CC[C@H]3C4)c(F)c2)s1 [Example 25]      5.20
4  CNS(=O)(=O)c1ccc(-c2ccc(C[C@@H](C#N)NC(=O)[C@H]3N[C@H]4C[C@@H]3[C@@H]3C[C@@H]34)c(F)c2)cc1 [Example 150]      5.03

Next up:
Qu. Entry N#CC(Cc1ccc(-c2ccoc2)cc1F)NC(=O)[C@H]1N[C@@H]2CC[C@H]1C2 (some centres unmarked) [Example 103] has what pIC50?
Ans. 5.23

###

# test name: Determination of metabolic stability with human liver microsomes
# protocol conditions: human, pooled human liver microsomes, pH 7.6
measurement name: half-life at 1 μM

> print(dat)
                                   molecule   measurement.name  observed
1  CN(C)CC1CCCN(c2ccc(C[C@@H](C#N)NC(=O)[C@H]3N[C@@H]4CC[C@H]3C4)c(F)c2)C1 (stereo partly drawn)  half-life at 1 μM  > 2.17 h
2  N#C[C@H](Cc1ccc(N2CCOCC2)cc1F)NC(=O)[C@H]1N[C@@H]2CC[C@H]1C2  half-life at 1 μM  > 2.17 h
3  COCCN1C(=O)Cc2ccc(-c3ccc(C[C@@H](C#N)NC(=O)[C@H]4N[C@@H]5CC[C@H]4C5)c(F)c3)cc21  half-life at 1 μM  > 2.17 h
4  N#CC(Cc1ccc2c(c1)c(=O)[nH]c1c(F)cccc12)NC(=O)[C@H]1N[C@@H]2CC[C@H]1C2 (stereo partly drawn)  half-life at 1 μM  > 2.17 h
5  CNC(=O)Cc1ccc2[nH]c(=O)c3cc(CC(C#N)NC(=O)[C@H]4N[C@@H]5CC[C@H]4C5)ccc3c2c1 (stereo partly drawn)  half-life at 1 μM  > 2.17 h

Each of the following entries comes with a recorded value; kindly state half-life at 1 μM for each.
1. Cn1c(=O)c2cc(CC(C#N)NC(=O)[C@H]3N[C@@H]4CC[C@H]3C4)ccc2c2ccc(C#N)cc21 (stereo partly drawn)
2. N#C[C@H](Cc1ccc(-n2cc(C3CC3)nn2)cc1F)NC(=O)[C@H]1N[C@@H]2CC[C@H]1C2

Ans.
1: > 2.17 h; 2: 1.48 h

Each of the following entries comes with a recorded value; kindly state half-life at 1 μM for each.
1. CN1CCN(C(=O)c2ccc(-c3ccc(C[C@@H](C#N)NC(=O)[C@H]4N[C@@H]5CC[C@H]4C5)c(F)c3)o2)CC1
2. CN1Cc2cc(-c3ccc(C[C@@H](C#N)NC(=O)[C@H]4N[C@@H]5CC[C@H]4C5)c(F)c3)ccc2S1(=O)=O
3. CC(=O)N1CCC(Cn2cc(-c3ccc(C[C@@H](C#N)NC(=O)[C@H]4N[C@@H]5CC[C@H]4C5)c(F)c3)cn2)CC1
4. N#C[C@H](Cc1ccc(-c2cccc(C(N)=O)c2)cc1F)NC(=O)[C@H]1N[C@@H]2CC[C@H]1C2
5. CC1CN(C)CCN1c1ccc(C[C@@H](C#N)NC(=O)[C@H]2N[C@@H]3CC[C@H]2C3)c(F)c1 (stereo partly drawn)

Ans.
1.83 h
> 2.17 h
> 2.17 h
1.53 h
> 2.17 h

Each of the following entries comes with a recorded value; kindly state half-life at 1 μM for each.
1. N#C[C@H](Cc1cc2c(=O)[nH]c3ccccc3c2cc1F)NC(=O)[C@H]1N[C@@H]2CC[C@H]1C2
2. CN1CCN(C(=O)c2cccc(-c3ccc(C[C@@H](C#N)NC(=O)[C@H]4N[C@@H]5CC[C@H]4C5)c(F)c3)c2)CC1
3. N#CC(Cc1ccc2c(c1)c(=O)[nH]c1ccccc12)NC(=O)[C@H]1N[C@@H]2CC[C@H]1C2 (stereo partly drawn)

Ans.
1: > 2.17 h; 2: > 2.17 h; 3: > 2 h

Each of the following entries comes with a recorded value; kindly state half-life at 1 μM for each.
1. Cn1cc(-c2ccc(C[C@@H](C#N)NC(=O)[C@H]3N[C@@H]4CC[C@H]3C4)c(F)c2)ccc1=O
2. N#C[C@H](Cc1ccc(-c2cnn(CC3CCCCO3)c2)cc1F)NC(=O)[C@H]1N[C@@H]2CC[C@H]1C2 (stereo partly drawn)

Ans.
1. > 2.17 h
2. > 2.17 h

Each of the following entries comes with a recorded value; kindly state half-life at 1 μM for each.
1. N#C[C@H](Cc1ccc(-c2ccc3c(c2)CNC3=O)cc1F)NC(=O)[C@H]1N[C@H]2C[C@@H]1[C@@H]1C[C@@H]12
2. N#Cc1ccc2[nH]c(=O)c3cc(CC(C#N)NC(=O)[C@H]4N[C@@H]5CC[C@H]4C5)ccc3c2c1 (stereo partly drawn)
3. CS(=O)(=O)c1ccc2[nH]c(=O)c3cc(CC(C#N)NC(=O)[C@H]4N[C@@H]5CC[C@H]4C5)ccc3c2c1 (stereo partly drawn)

Ans.
> 2.17 h
1.75 h
> 2.17 h

Each of the following entries comes with a recorded value; kindly state half-life at 1 μM for each.
1. N#C[C@H](Cc1ccc(-c2ccc(S(N)(=O)=O)cc2)cc1F)NC(=O)[C@H]1N[C@H]2C[C@@H]1[C@@H]1C[C@@H]12
2. N#C[C@H](Cc1ccc(-n2cccn2)cc1F)NC(=O)[C@H]1N[C@@H]2CC[C@H]1C2
3. N#C[C@H](Cc1ccc(-c2cc(C(=O)N3CCn4nccc4C3)co2)cc1F)NC(=O)[C@H]1N[C@@H]2CC[C@H]1C2

Ans.
1: > 2.17 h; 2: > 2 h; 3: 1.83 h

Each of the following entries comes with a recorded value; kindly state half-life at 1 μM for each.
1. CN1CCN(S(=O)(=O)c2ccc(-c3ccc(C[C@@H](C#N)NC(=O)[C@H]4N[C@@H]5CC[C@H]4C5)c(F)c3)cc2)CC1
2. CN1Cc2cc(-c3ccc(CC(C#N)NC(=O)[C@H]4N[C@@H]5CC[C@H]4C5)c(F)c3)ccc2C1=O (stereo partly drawn)
3. N#C[C@H](Cc1ccc(-c2cc[nH]n2)cc1F)NC(=O)[C@H]1N[C@@H]2CC[C@H]1C2
4. N#C[C@H](Cc1ccc([C@H]2CCN3CCOC[C@H]3C2)cc1F)NC(=O)[C@H]1N[C@@H]2CC[C@H]1C2

Ans.
1.03 h
1.4 h
> 2.17 h
0.967 h

###

# measured target: recombinant human DPPI (Cathepsin C) (Homo sapiens (Human))
# Sequence (P53634 231-394): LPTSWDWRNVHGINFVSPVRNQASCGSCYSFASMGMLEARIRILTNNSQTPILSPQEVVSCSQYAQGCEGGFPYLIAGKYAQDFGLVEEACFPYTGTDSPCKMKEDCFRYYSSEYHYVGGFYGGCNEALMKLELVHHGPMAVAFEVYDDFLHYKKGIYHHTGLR
# Sequence (P53634 395-463): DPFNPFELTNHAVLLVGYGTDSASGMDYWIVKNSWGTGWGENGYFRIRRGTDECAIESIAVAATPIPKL
# Sequence (P53634 25-134): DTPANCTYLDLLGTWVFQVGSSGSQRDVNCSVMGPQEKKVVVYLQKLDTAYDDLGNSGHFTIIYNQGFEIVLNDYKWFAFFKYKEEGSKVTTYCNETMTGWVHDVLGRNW
# test name: Inhibition of human DPPI (Cathepsin C)
# protocol conditions: substrate Gly-Arg-AMC
Record form. Attribute: log10(IC50). Fill in for each entry.
Values below are the log10 of the recorded IC50, with nM as the unit.

Previously resolved entries follow.
> print(dat)
                                   compound  measurement.name  observed
1  N#Cc1ccc2[nH]c(=O)c3cc(CC(C#N)NC(=O)[C@H]4N[C@@H]5CC[C@H]4C5)ccc3c2c1 (stereo partly shown)       log10(IC50)      0.51
2  CN(C)CCn1cc(-c2ccc(C[C@@H](C#N)NC(=O)[C@H]3N[C@@H]4CC[C@H]3C4)c(F)c2)ccc1=O       log10(IC50)      0.11

Each of the following entries comes with a recorded value; kindly state log10(IC50) for each.
1. COC(=O)c1ccc2[nH]c(=O)c3cc(CC(C#N)NC(=O)[C@H]4N[C@@H]5CC[C@H]4C5)ccc3c2c1 (stereo partly shown)
2. CN1CC2CCN(c3ccc(C[C@@H](C#N)NC(=O)[C@H]4N[C@@H]5CC[C@H]4C5)c(F)c3)C2C1 (stereo partly shown)
3. CN1CCC2(C=C(c3ccc(C[C@@H](C#N)NC(=O)[C@H]4N[C@@H]5CC[C@H]4C5)c(F)c3)C2)CC1
4. N#C[C@H](Cc1ccc(-n2cc(C(=O)N3CCOCC3)cn2)cc1F)NC(=O)[C@H]1N[C@@H]2CC[C@H]1C2
5. N#CC(Cc1ccc2c(c1)CCc1ccccc1-2)NC(=O)[C@H]1N[C@@H]2CC[C@H]1C2 (stereo partly shown)

Ans.
[0.51, 0.81, 0.94, 1.60, 1.66]
